Molecular target: MAPK14 (human) (UniProt Q16539)
Sequence (Q16539 whole entry, looked up): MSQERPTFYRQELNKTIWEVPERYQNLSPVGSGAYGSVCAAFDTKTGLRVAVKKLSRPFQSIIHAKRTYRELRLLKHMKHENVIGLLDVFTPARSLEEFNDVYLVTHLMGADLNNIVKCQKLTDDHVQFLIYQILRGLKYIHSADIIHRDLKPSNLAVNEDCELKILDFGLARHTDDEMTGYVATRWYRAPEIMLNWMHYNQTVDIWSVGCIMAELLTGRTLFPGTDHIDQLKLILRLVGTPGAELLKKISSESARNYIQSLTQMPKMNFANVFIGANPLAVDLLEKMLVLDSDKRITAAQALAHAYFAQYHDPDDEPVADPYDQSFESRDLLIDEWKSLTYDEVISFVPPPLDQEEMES
Assay: Inhibition of TNF-alpha Production from LPS Stimulated PBMC
Endpoint Label: pIC50
One number for each entry, as −log10 of the molar value.

Example entries begin here.
{"Smiles Record": "CSc1nc(-c2ccc(F)cc2)c(-c2ccnc(NCc3ccc(Cl)c(Cl)c3)c2)[nH]1", "pIC50": 6.14}
{"Smiles Record": "CSc1nc(-c2ccc(F)cc2)c(-c2ccnc(F)c2)[nH]1", "pIC50": 5.55}
{"Smiles Record": "COc1ccc(CNc2cc(-c3[nH]c(SC)nc3-c3ccc(F)cc3)ccn2)cc1", "pIC50": 6.19}

Problem: Item CSc1nc(-c2ccc(F)cc2)c(-c2ccnc(NCCc3ccccc3)c2)[nH]1 : provide pIC50
Solution: 6.46
